System: LOC_OS02G07810-cb001
PROTOCOL_SUMMARY: thermal shift delta Tm vs DMSO control; higher = stronger stabilization (binding);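 note: purified Escherichia coli-expressed rice kinase domain construct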
PROTOCOL_CONDITIONS: 12.5 µM; protein concentration 2 µM
Structures can show the parent of a compound that is named as a salt.
Reported thermal shift delta Tm is given for each of the following molecules.
Response body: numeric value in °C, unit text excluded.

# count of solved cases: 2
# MOLECULE, DATA_VALUE
data = [
    ("COc1cc(N2CCC(N(C)C)CC2)ccc1Nc1ncc(Cl)c(Nc2ccccc2P(C)(C)=O)n1", 0.65),
    ("Nc1cccc(-c2cc3c(Oc4cccc(O)c4)ncnc3[nH]2)c1", 1.59),
]

Reported thermal shift delta Tm for COc1cc2c3cc1Oc1c(OC)c(OC)cc4c1[C@@H](Cc1ccc(O)c(c1)Oc1ccc(cc1)C[C@@H]3N(C)CC2)N(C)CC4 [Berbamine (dihydrochloride)] : what is it?
-0.23

Using the record for c1nc2c(NC3CCCCC3)nc(Nc3ccc(N4CCOCC4)cc3)nc2[nH]1 [Reversine] , report its thermal shift delta Tm.
-0.13

Would you mind telling me what thermal shift delta Tm value was observed for `C=CC(=O)Nc1cc(Nc2nccc(-c3c[nH]c4ccccc34)n2)c(OC)cc1N(C)CCN(C)C` ?
0.87

Which thermal shift delta Tm reading was recorded for the molecule `O=C(Cc1ccc(-c2ccc(OCCN3CCOCC3)cc2)cn1)NCc1ccccc1` ?
0.92

Endpoint output: thermal shift delta Tm of `O=C(Nc1cc(C(F)(F)F)cc(C(F)(F)F)c1)c1cc(Cl)ccc1O` . Value?
2.75

Recorded thermal shift delta Tm of O=C(Nc1cccc(Cl)c1)Nc1ncc(CCNc2ncnc3ccsc23)s1 [SNS-314 Mesylate] , please.
2.27

What value of measured thermal shift delta Tm is listed for `Nc1ncnc2n[nH]c(Nc3ccc(F)cc3)c12` ?
0.46

---

Test system: LOC_OS02G54510-cb004
PROTOCOL_SUMMARY: thermal shift delta Tm vs DMSO control; higher = stronger stabilization (binding)
PROTOCOL_CONDITIONS: 12.5 µM; protein concentration 2 µM
// values below are reported thermal shift delta Tm
Note: unit °C is implicit; provide only the numeric part.

# SMILES_REPRESENTATION, thermal shift delta Tm, °C
records = [
    ("O=C(Nc1cccc(C(F)(F)F)c1)c1cccc2cc(Oc3cc(CO)ncn3)ccc12", 0.52),
]

Field request: thermal shift delta Tm | item: `C=CC(=O)Nc1cccc(Nc2nc(Nc3ccc(NC4CN(CCF)C4)cc3OC)ncc2C(F)(F)F)c1`
0.67

I have this compound here, `COc1ccc([C@@H]2OC[C@H]3[C@@H]2CO[C@@H]3c2ccc(O[C@@H]3O[C@H](CO)[C@@H](O)[C@H](O)[C@H]3O)c(OC)c2)cc1OC` , and I need its recorded thermal shift delta Tm.
-0.05

Look up thermal shift delta Tm for this compound: `CCN(CC)CCCCNc1ncc2cc(-c3cc(OC)cc(OC)c3)c(NC(=O)NC(C)(C)C)nc2n1`
0.28

---

System: LOC_OS01G57100-cb003
PROTOCOL_SUMMARY: thermal shift delta Tm vs DMSO control; higher = stronger stabilization (binding)
PROTOCOL_CONDITIONS: 12.5 µM; protein concentration 2 µM
compounds and their reported thermal shift delta Tm
Field format: number, assumed °C, no unit text.

# COMPOUND, ASSAY_TARGET, thermal shift delta Tm (°C)
rows = [
    ("COc1cc(N2CCN(C)CC2)ccc1Nc1ncc2c(n1)N(C)c1ccccc1C(=O)N2", "LOC_OS01G57100-cb003", 0.71),
    ("C1=N/C2=N/c3ccc(OCCN4CCCC4)c(c3)COC/C=C/COCc3cccc(c3)C(=C1)N2 [Pacritinib (SB1518)]", "LOC_OS01G57100-cb003", 1.85),
    ("Cc1nc2ccc(-n3ncc(C(=O)c4cc5ccccc5[nH]4)c3N)cc2[nH]1", "LOC_OS01G57100-cb003", -0.72),
    ("COc1cccc(-n2c(=O)[nH]c3cc(Cl)n(-c4ccc(-c5cccc(OC)c5O)cc4)c3c2=O)c1", "LOC_OS01G57100-cb003", 1.57),
    ("CC(C)Oc1ccc(-c2nn([C@@H](C)c3oc4ccc(F)cc4c(=O)c3-c3cccc(F)c3)c3ncnc(N)c23)cc1F", "LOC_OS01G57100-cb003", 1.03),
    ("FC(F)(F)c1ccc(Nc2nc3ccc(Oc4ccnc(-c5ncc(C(F)(F)F)[nH]5)c4)cc3[nH]2)cc1", "LOC_OS01G57100-cb003", 1.09),
    ("N#C/C(=C\\c1ccc(O)c(O)c1)C(=O)NCc1ccccc1", "LOC_OS01G57100-cb003", 0.3),
    ("COCCNCc1ccc(-c2cc3nccc(Oc4ccc(NC(=O)C5(C(=O)Nc6ccc(F)cc6)CC5)cc4F)c3s2)nc1", "LOC_OS01G57100-cb003", 0.24),
]

Need thermal shift delta Tm, item `COc1cc2c(cc1OC)[C@@H]1C(=O)c3ccc4c(c3O[C@@H]1CO2)C=CC(C)(C)O4`
1.25

Report thermal shift delta Tm for `O=c1ncn2nc(Sc3ccc(F)cc3F)ccc2c1-c1c(Cl)cccc1Cl` please.
1.7

Dear colleague, I am looking for the recorded thermal shift delta Tm of the following compound: `CN1CCN(c2ccc(Nc3cc(-c4cccc(-n5ccc6cc(C7CC7)cc(F)c6c5=O)c4CO)cn(C)c3=O)nc2)CC1`
0.99

Consider the compound shown here: `Cn1cc(C2=C(c3ccc(Cl)cc3Cl)C(=O)NC2=O)c2ccccc21` What is its recorded thermal shift delta Tm?
6.65

Would you kindly share the measured thermal shift delta Tm for `c1nc2c(NC3CCCCC3)nc(Nc3ccc(N4CCOCC4)cc3)nc2[nH]1` ?
0.27

Could you tell me which thermal shift delta Tm is on file for `COc1cc(-c2cc(-c3ccc(N4CCNCC4)cc3)cnc2C)cc(OC)c1OC` ?
-0.02

---

System: LOC_OS01G10900-cb004
PROTOCOL_SUMMARY: thermal shift delta Tm vs DMSO control; higher = stronger stabilization (binding)
PROTOCOL_CONDITIONS: 12.5 µM; protein concentration 2 µM
Listed below: thermal shift delta Tm values for each entry.

For the molecule shown here, `CCNC(=O)Nc1ccc(-c2nc(N3CCOC[C@@H]3C)c3c(n2)C(C)(C)S(=O)(=O)C3)cc1` , give the reported thermal shift delta Tm.
0.47 °C

Which thermal shift delta Tm reading was recorded for the molecule CN1CCN(c2ccc(C(=O)Nc3n[nH]c4ccc(Cc5cc(F)cc(F)c5)cc34)c(NC3CCOCC3)c2)CC1 [Entrectinib (RXDX-101)] ?
4.99 °C

Using the record for `COc1ncc(-c2ccc3nccc(-c4ccnnc4)c3c2)cc1NS(=O)(=O)c1ccc(F)cc1F` , report its thermal shift delta Tm.
0.23 °C

Would you mind telling me what thermal shift delta Tm value was observed for `Cc1c(NC(=O)c2ccc(C(C)(C)C)cc2)cccc1-c1cn(C)c(=O)c(Nc2ccc(C(=O)N3CCOCC3)cc2)n1` ?
-1.08 °C

Could you share which thermal shift delta Tm value was measured for COc1cc(Nc2c(C#N)cnc3cc(OCCCN4CCN(C)CC4)c(OC)cc23)c(Cl)cc1Cl [Bosutinib (SKI-606)] ?
-0.3 °C

Which measured thermal shift delta Tm value corresponds to Cc1nc(NC(=O)N2CCC[C@H]2C(N)=O)sc1-c1ccnc(C(C)(C)C(F)(F)F)c1 [Alpelisib (BYL719)] ?
3.68 °C

# get_value(readout='thermal shift delta Tm', item= `CC(C)(C)NS(=O)(=O)c1cncc(-c2cc(F)c3nc(N)nn3c2)c1` )
0.04 °C

For C=C[C@@](C)(/C=C/c1ccc(O)cc1)CCC=C(C)C [Bakuchiol] , what is its reported thermal shift delta Tm?
1.06 °C

---

Tested on: LOC_OS04G57630-cb004
PROTOCOL_SUMMARY: thermal shift delta Tm vs DMSO control; higher = stronger stabilization (binding)
PROTOCOL_CONDITIONS: 12.5 µM; protein concentration 2 µM
Readings of thermal shift delta Tm for the listed compounds
Dear colleague, please return just the value in °C, with no unit written.

# SMILES_REPRESENTATION, thermal shift delta Tm / °C
measured = [
    ("CONC(=O)c1ccccc1Nc1cc(Nc2cc(C)nn2C(C)C)ncc1Cl", 0.41),
    ("CNC(=O)c1cc(Oc2ccc3nc(N[C@@H]4CCCC[C@H]4O)sc3c2)ccn1", 0.41),
    ("N#CC1(c2ccc(NC(=O)c3cccnc3NCc3ccncc3)cc2)CCCC1", 0.34),
]

What measured thermal shift delta Tm is associated with `C=CC(=O)Nc1cccc(Nc2nc(Nc3ccc(N4CCN(C(C)=O)CC4)cc3OC)ncc2C(F)(F)F)c1` on LOC_OS04G57630-cb004?
0.55
